# Test system: RAW264.7
# test.summary: Antiinflammatory activity in mouse RAW264.7 cells assessed as inhibition of LPS-stimulated TNFalpha expression up to 10 uM by quantitative RT-PCR analysis
# Format: functional, cell-based
Give pIC50 for every item shown.
Lab note: report pIC50 as minus log10 of the concentration in molar units, number only.

I'd like to know its pIC50. The molecule in question is CCCCCCCCCCCCCC(=O)O[C@H]1CC[C@H](NC(=O)[C@H](OC)[C@H](O)[C@@H](O)[C@H](O)/C=C/C(C)C)C(=O)NC1 [BENGAMIDE A]
6.30

Now consider CCCCCCCCCCCCCC(=O)O[C@H]1CC[C@H](NC(=O)[C@H](OC)[C@H](O)[C@@H](O)[C@H](O)/C=C/C(C)C)C(=O)N(C)C1 [BENGAMIDE B] .
6.30

====

# test.summary: Inhibition of LPS-stimulated NFkappaB activation transfected in mouse RAW264.7 cells after 18 hrs by luciferase reporter gene assay
# measurement.setup: RAW264.7, 18 h
metric.name: pIC50
Lab note: report pIC50 as minus log10 of the concentration in molar units, number only.

I'd like to know its pIC50. The compound in question is CCC(C)/C=C/[C@@H](O)[C@H](O)[C@@H](O)[C@@H](OC)C(=O)N[C@H]1CCCCNC1=O (mixture of isomers)
5.70

Now consider CO[C@@H](C(=O)N[C@H]1CCCCNC1=O)[C@H](O)[C@@H](O)[C@H](O)/C=C/C(C)C [BENGAMIDE E] .
5.12

Now consider CO[C@@H](C(=O)N[C@H]1CC[C@@H](OC(=O)C2CCCCC2)CN(C)C1=O)[C@H](O)[C@@H](O)[C@H](O)/C=C/C(C)(C)C .
6.30

Now consider CCCCCCCCCCCCCC(=O)O[C@H]1CC[C@H](NC(=O)[C@H](OC)[C@H](O)[C@@H](O)[C@H](O)/C=C/C(C)C)C(=O)N(C)C1 [BENGAMIDE B] .
7.07

Now consider CCCCCCCCCCCCCC(=O)O[C@H]1CC[C@H](NC(=O)[C@H](OC)[C@H](O)[C@@H](O)[C@H](O)/C=C/C(C)C)C(=O)NC1 [BENGAMIDE A] .
7.12

Now consider CCC(C)/C=C/[C@@H](O)[C@H](O)[C@@H](O)[C@@H](OC)C(=O)N[C@H]1CCCCN(C)C1=O (mixture of isomers) .
5.70

Now consider CC1=C(O)C(=O)C=C2C1=CC=C1[C@@]2(C)CC[C@@]2(C)[C@@H]3C[C@](C)(C(=O)O)CC[C@]3(C)CC[C@]12C .
6.70
